- assayed.target: PADI4, Q9UM07
- Sequence (Q9UM07 whole entry): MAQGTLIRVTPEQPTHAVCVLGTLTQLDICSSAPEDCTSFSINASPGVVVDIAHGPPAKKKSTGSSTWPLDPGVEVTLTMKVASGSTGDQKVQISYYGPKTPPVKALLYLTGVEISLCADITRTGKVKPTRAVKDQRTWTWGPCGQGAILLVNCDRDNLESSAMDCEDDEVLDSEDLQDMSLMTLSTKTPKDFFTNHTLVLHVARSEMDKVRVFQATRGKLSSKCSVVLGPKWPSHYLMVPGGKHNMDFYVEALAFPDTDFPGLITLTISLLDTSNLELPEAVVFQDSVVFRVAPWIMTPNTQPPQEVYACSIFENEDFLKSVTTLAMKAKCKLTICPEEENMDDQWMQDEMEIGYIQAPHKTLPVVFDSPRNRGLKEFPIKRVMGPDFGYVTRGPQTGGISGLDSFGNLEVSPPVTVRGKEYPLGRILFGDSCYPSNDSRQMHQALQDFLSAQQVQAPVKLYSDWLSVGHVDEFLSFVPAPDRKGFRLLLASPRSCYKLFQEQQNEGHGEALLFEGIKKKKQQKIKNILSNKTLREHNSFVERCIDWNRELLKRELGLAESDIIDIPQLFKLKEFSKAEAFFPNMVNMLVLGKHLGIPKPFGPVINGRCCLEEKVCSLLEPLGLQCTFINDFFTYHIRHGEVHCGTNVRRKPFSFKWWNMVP
- experimental.details: log2 enrichment score relative to parent PADI4_3 peptide (binding to PADI4); higher = tighter binding than parent
- settings: CaCl2: 10 mM
Please respond with reported log2 enrichment score for every item in the list.
No unit in the answer, only the number.

Exercise: Which log2 enrichment score value belongs to YRDHHYRHKKYCG [PADI4_3_P9K P9K] ?
Solution: -1.76

Exercise: Which log2 enrichment score value belongs to YRDHHYIHPKYCG [PADI4_3_R7I R7I] ?
Solution: -1.67

Exercise: Which log2 enrichment score value belongs to YNDHHYRHPKYCG [PADI4_3_R2N R2N] ?
Solution: -2.77

Exercise: Which log2 enrichment score value belongs to YRDHIYRHPKYCG [PADI4_3_H5I H5I] ?
Solution: -3.45

Exercise: Which log2 enrichment score value belongs to YRDHHYRHPKDCG [PADI4_3_Y11D Y11D] ?
Solution: -3.74

Exercise: Which log2 enrichment score value belongs to YRDHCYRHPKYCG [PADI4_3_H5C H5C] ?
Solution: -4

Exercise: Which log2 enrichment score value belongs to YRAHHYRHPKYCG [PADI4_3_D3A D3A] ?
Solution: -2.97

Exercise: Which log2 enrichment score value belongs to YKDHHYRHPKYCG [PADI4_3_R2K R2K] ?
Solution: 0.59

FYI, the data here is from the supplement of paper PMC11555231.
